- Tested on: CAMK2A;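 further: KINOMEscan kinase panel screen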
- condition-set: concentration: 1 μM, replicates: in singlicate; n = 1
quantity: %Inh (%)
Number only, in %; omit the unit.

Solved entries:
>  <molecule>
O=C1NC(=O)C(N2CCc3ccccc32)=C1c1cccc(Cl)c1

>  <measurement-units>
%

>  <recorded-measurement>
0

$$$$
>  <molecule>
COc1cc2c(cc1OC[C@@H](O)CO)ncc1c3ccc(C#N)cc3[nH]c21

>  <measurement-units>
%

>  <recorded-measurement>
89

$$$$
>  <molecule>
CC(C)Oc1ccc2c(-c3ccnc(Nc4ccc(N5CCN(C)CC5)cc4)n3)cnn2n1

>  <measurement-units>
%

>  <recorded-measurement>
44

$$$$

In the following, a different molecule is considered.
Prompt line: Requested read-out: %Inh. Entry: `COc1cc2c(cc1OCCN1CCN(C)CC1)ncc1c3ccc(C#N)cc3[nH]c21`
Response line: 93.5
